target: STE20-like serine/threonine-protein kinase (Homo sapiens) (UniProt Q9H2G2); test: SLK binders by thermal stabilization, biophysical, purified human kinase, DSF (AID 514); conditions: differential scanning fluorimetry Tm shift, at 10 µM, protein 2 µM, buffer 10 mM HEPES, pH 7.5, NaCl 150 mM, hits give high values
Sequence (Q9H2G2 whole entry, looked up): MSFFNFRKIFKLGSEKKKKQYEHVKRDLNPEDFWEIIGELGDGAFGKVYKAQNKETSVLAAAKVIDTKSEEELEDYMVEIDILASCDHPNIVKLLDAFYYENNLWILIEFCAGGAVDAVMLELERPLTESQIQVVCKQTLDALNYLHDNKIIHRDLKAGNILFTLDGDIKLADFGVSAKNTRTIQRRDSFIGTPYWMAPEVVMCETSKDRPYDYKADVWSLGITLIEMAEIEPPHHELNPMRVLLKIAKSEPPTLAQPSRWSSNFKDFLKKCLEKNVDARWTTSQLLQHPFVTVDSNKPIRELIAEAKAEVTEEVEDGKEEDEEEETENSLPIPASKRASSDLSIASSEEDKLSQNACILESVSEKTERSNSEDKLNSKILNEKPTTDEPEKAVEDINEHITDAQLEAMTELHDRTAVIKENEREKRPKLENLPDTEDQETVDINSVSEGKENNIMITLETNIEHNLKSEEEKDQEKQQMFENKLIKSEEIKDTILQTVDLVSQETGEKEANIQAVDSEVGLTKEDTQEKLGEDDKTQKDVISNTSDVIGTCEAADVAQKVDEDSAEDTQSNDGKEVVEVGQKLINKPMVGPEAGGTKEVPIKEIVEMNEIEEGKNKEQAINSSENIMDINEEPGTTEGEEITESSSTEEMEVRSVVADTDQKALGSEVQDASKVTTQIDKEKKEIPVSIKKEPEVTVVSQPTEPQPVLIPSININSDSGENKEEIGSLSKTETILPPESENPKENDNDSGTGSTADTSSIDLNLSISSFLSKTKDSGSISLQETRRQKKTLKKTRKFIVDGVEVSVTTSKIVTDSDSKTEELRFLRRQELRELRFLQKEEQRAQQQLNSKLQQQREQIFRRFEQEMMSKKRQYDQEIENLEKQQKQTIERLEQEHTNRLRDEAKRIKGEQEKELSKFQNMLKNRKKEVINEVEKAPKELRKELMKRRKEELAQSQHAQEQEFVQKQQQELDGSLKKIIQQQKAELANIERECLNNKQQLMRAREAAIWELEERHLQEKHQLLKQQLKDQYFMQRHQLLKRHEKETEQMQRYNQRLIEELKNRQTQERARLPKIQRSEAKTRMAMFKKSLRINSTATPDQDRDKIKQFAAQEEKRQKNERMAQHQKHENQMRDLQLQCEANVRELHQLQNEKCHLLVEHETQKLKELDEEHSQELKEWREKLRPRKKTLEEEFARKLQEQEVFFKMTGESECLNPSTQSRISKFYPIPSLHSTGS
# Tm shift per entry

Example cases with answers are listed next.
>>> result("Clc1cccc(-c2cnc3ccc(NCCc4ccccn4)nn23)c1")
"3.5 C"
>>> result("N#Cc1cnc2cnc(NCc3cccnc3)cc2c1Nc1ccc(F)c(Cl)c1")
"6.1 C"
>>> result("O=C1Nc2ccccc2/C1=C\\c1cnc[nH]1")
"3.3 C"

For O=C(c1ccc(Nc2nccc(-c3cc4ccccc4s3)n2)cc1)N1CCC(N2CCCC2)CC1 the compound record lists Tm shift as 7.3 C

For CCC(CO)Nc1ccc2ncc(-c3ccc(O)cc3)n2n1 (stereo unspecified) the compound record lists Tm shift as 3.7 C

For c1csc(-c2cnc3ccc(NCC4CC4)nn23)c1 the compound record lists Tm shift as 3.3 C

---

target: STE20-like serine/threonine-protein kinase (Homo sapiens); experiment: SLK binders by thermal stabilization, biophysical, purified human kinase, DSF (AID 514); settings: differential scanning fluorimetry Tm shift, at 10 µM, protein 2 µM, buffer 10 mM HEPES, pH 7.5, NaCl 150 mM, hits give high values
# Tm shift per entry

>>> result("CCOc1cc2ncnc(Nc3cccc(Br)c3)c2cc1OCC")
"7.9 C"

Would you kindly look at the next entry?
// assay STE20-like serine/threonine-protein kinase (Homo sapiens), entry O=C1Nc2ccccc2/C1=C/c1ccc[nH]1 , Tm shift value = 3.1 C

---

biological target: STE20-like serine/threonine-protein kinase (Homo sapiens) (UniProt Q9H2G2); assay: SLK binders by thermal stabilization, biophysical, purified human kinase, DSF (AID 514); details: differential scanning fluorimetry Tm shift, at 10 µM, protein 2 µM, buffer 10 mM HEPES, pH 7.5, NaCl 150 mM, hits give high values
Readout Name: Tm shift

Example cases with answers are listed next.
>>> result("COc1ccc(C(=O)c2sc(Nc3cccc(C(F)(F)F)c3)nc2N)cc1")
"4.5 C"
>>> result("CC(C)(C)n1nc(-c2cccc3ccccc23)c2c(N)ncnc21")
"6.1 C"
>>> result("CN(C)S(O)(O)c1ccc2c(c1)/C(=C/c1cc3c([nH]1)CCCC3)C(=O)N2")
"6.2 C"

For Fc1cccc(-c2cnc3ccc(NC4CCOCC4)nn23)c1 the compound record lists Tm shift as 4.1 C

For O=C1NC(=O)C(c2c[nH]c3ccccc23)=C1c1c[nH]c2ccccc12 the compound record lists Tm shift as 4.6 C

For COc1cc(/C=C/C(=O)CC(=O)/C=C/c2ccc(O)c(OC)c2)ccc1O the compound record lists Tm shift as 3.2 C

For COc1cncc(-c2cnc3ccc(NC4CCOCC4)nn23)c1 the compound record lists Tm shift as 3.4 C

For NCCCn1cc(C2=C(c3c[nH]c4ccccc34)C(=O)NC2=O)c2ccccc21 the compound record lists Tm shift as 7.6 C

For Cc1cc(Nc2nc(-c3ccccc3)nc3ccccc23)n[nH]1 the compound record lists Tm shift as 6.4 C

For CC(C)[C@@H](CO)Nc1ccc2ncc(-c3ccc(C#N)cc3)n2n1 the compound record lists Tm shift as 3.7 C

For NCCNc1ncc(C(N)=O)c(Nc2cccc(C(F)(F)F)c2)n1 the compound record lists Tm shift as 3.3 C
